System: L1210 leukemia ip in BDF1 mice, survival T/C
Protocol: NCI In Vivo Anticancer Drug Screen. Data for tumor model L1210 Leukemia (intraperitoneal) in B6D2F1 (BDF1) mice
Condition context: endpoint: mean survival time; dose: 25.0 mg/kg/injection; schedule: Q01DX009 (ip); vehicle: saline with Tween-80; higher = longer survival
Toxic doses and inconclusive results are not listed.
Attribute measured: T/C

Smi | Endpoint value
CSC(=O)N=Nc1c(O)n(C)c(=O)n(C)c1=O | 97 % of control

*Q* Fill blank: measured T/C of the molecule CC(=O)N/N=C/C=C/c1ccccc1 is ____.
*A* 95 % of control

*Q* Cool, now CC(=O)NCc1ccc([N+](=O)[O-])cc1
*A* 100 % of control
